Data origin, for the record: paper PMC10397247

Target: T1, APC4336-AA
T1 chain: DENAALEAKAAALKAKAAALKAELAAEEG
Assay: two-hybrid library CCmax;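 also: natural log of median RNA to DNA barcode read ratio; higher means stronger binding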
Conditions: mean of both orientations
propertyLabel: interaction score

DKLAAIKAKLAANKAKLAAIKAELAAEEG [APC1916-AA] = -1.64

a: DKAAALKAELAANEAELAANEAKLAAIKG [APC3881-AA]
b: DENAALEAKLAAIKAELAAIEAELAAIEG [APC4100-AA]
Min interaction score? a | b Use the label to indicate which entry you chose. a
